All values here come from paper PMC10786891.

Target: T1, EsCas13d, nuclease-dead (Eubacterium siraeum, UniProt B0MS50, R295A;H300A;R849A;H854A)
T1 sequence: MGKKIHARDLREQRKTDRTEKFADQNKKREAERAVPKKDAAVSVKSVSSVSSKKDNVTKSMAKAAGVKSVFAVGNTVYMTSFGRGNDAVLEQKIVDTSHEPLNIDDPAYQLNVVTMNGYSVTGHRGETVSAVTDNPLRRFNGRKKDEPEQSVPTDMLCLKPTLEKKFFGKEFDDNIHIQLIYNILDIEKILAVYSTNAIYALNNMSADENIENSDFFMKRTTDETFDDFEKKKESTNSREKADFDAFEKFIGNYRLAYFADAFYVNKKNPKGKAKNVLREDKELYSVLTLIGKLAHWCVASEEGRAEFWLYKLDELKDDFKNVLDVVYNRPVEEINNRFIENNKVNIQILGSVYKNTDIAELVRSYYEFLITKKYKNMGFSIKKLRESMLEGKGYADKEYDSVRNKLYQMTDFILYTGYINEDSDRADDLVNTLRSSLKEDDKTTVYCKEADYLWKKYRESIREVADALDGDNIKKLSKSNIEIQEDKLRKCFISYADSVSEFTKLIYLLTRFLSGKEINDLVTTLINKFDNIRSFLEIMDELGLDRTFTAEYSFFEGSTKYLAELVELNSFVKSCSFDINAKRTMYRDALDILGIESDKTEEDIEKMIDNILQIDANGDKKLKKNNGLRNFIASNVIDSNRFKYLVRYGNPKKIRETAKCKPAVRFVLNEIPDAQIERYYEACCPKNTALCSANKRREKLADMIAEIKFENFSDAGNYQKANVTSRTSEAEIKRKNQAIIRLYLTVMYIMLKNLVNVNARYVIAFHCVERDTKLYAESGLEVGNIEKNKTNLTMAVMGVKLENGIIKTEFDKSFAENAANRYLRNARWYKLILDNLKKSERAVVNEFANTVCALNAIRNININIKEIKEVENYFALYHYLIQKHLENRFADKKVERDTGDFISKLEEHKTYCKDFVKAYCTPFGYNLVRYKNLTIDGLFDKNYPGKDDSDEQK
Assay: crRNA (strand 1, pre-loaded); Mg2+; 40 mM Tris-HCl pH 7.5, 150 mM NaCl, 6 mM MgCl2, 1 mM DTT, 0.1% Tween-20, 0.2 mg/ml BSA; 25 C; 10 min per concentration, then washed
Settings: tags: His6-TwinStrep-SUMO cleaved; N-terminal SNAP kept (SNAP-Surface 488); label: 3' end held by stalled T7 RNA polymerase
# criterion met = Kd below 20 nM (exclusive); criterion not met = Kd at/above 20 nM

# example entries with known answers
>  <BINDER>
target 2 MT 5'PFS UUU 3'PFS AUA (mixed) RNA 1: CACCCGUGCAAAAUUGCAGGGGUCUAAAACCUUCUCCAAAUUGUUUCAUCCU RNA 2: GGGAAUGGAUCCACAUCUACGAAUUCUUUAGGAUGAAACAAUUUGGAGAAGAUAAGAUCGGAAGAGCACACGU

>  <CAT>
criterion met

$$$$
>  <BINDER>
target 1 insG 3' of 3,insG 3' of 2 (mixed) RNA 1: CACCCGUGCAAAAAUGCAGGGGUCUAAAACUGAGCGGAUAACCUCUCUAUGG RNA 2: GGGAAUGGAUCCACAUCUACGAAUUCGUACCAUAGAGAGGUUAUCCGCUGCGACCGAGAUCGGAAGAGCACACGU

>  <CAT>
criterion met

$$$$
>  <BINDER>
target 2 MT 5'PFS AAG 3'PFS AGC (mixed) RNA 1: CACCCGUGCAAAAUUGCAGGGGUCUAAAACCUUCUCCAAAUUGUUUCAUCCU RNA 2: GGGAAUGGAUCCACAUCUACGAAUUCAAGAGGAUGAAACAAUUUGGAGAAGAGCAGAUCGGAAGAGCACACGU

>  <CAT>
criterion met

$$$$

Asked: Strictly below 20 nM in Kd? target 1 G13U,A14U (mixed) RNA 1: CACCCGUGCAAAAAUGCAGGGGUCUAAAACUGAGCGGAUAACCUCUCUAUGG RNA 2: GGGAAUGGAUCCACAUCUACGAAUUCGUACCAUAGAGUUGUUAUCCGCUCACCGAGAUCGGAAGAGCACACGU
Given back: criterion met

Asked: State whether 20 nM exceeds Kd recorded for target 2 MT 5'PFS UUA 3'PFS CCA (mixed) RNA 1: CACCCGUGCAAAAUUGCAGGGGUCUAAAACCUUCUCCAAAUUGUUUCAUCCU RNA 2: GGGAAUGGAUCCACAUCUACGAAUUCUUAAGGAUGAAACAAUUUGGAGAAGCCAAGAUCGGAAGAGCACACGU .
Given back: criterion not met

Asked: Hello, is Kd of the following binder strictly smaller than 20 nM? target 2 MT 5'PFS UAC 3'PFS AGG (mixed) RNA 1: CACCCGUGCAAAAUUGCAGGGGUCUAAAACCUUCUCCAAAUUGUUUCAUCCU RNA 2: GGGAAUGGAUCCACAUCUACGAAUUCUACAGGAUGAAACAAUUUGGAGAAGAGGAGAUCGGAAGAGCACACGU
Given back: criterion met

Asked: Lab log: compare recorded Kd with 20 nM; is it strictly lower for target 3 G3C,U8C (mixed) RNA 1: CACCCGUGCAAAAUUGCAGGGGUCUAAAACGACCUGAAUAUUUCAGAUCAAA RNA 2: GGGAAUGGAUCCACAUCUACGAAUUCGUUUUUGAUCUGAAAUACUCAGCUCUGCAGAUCGGAAGAGCACACGU ?
Given back: criterion not met
